# Tested on: HS 578T breast
# experiment description: NCI-60 one-dose screen, 48 h (100 = growth as untreated, 0 = no growth, -100 = all killed)
# experimental setup: 10 µM unless noted
About 83,000 compounds went through this panel and 20% of them were active in at least one assay; those are over-represented in the sample as a whole.
For each entry below, report its growth value.
The response must be a number in % with no trailing unit.

[ask] Find the measured growth of C=CCOc1cccc(/C=C2\SC(=Nc3ccc(O)cc3)NC2=O)c1 and report it.
[reply] 18

[ask] Note growth for the compound shown: COc1ccc(-c2nc3sccn3c2/C=C/C(=O)c2c[nH]c3ccccc23)cc1
[reply] 74.9

[ask] Let me know recorded growth for C=C(C)[C@@H]1CC[C@]2(CO)CC[C@]3(C)[C@H](CC[C@@H]4[C@@]5(C)C=C(C#N)C(=O)C(C)(C)[C@@H]5CC[C@]43C)[C@@H]12 , thanks.
[reply] 29.3

[ask] Return the recorded growth value; entry: O=c1cc(-c2ccc(OCc3ccccc3)cc2)oc2c(I)c(OCc3ccccc3)cc(OCc3ccccc3)c12
[reply] 88.3

[ask] Check the records and state growth for NC(=O)c1c(NC(=O)c2ccccn2)sc2c1CCC(=O)C2
[reply] 25.1

[ask] Fill in growth for record C=C1C(=O)O[C@H]2[C@H]1CC/C(COC(=O)/C=C\C(=O)NCc1ccc(Cn3c(=O)sn(CCCI)c3=O)cc1)=C\CC[C@@]1(C)O[C@@H]21
[reply] -40.2

[ask] Please report the measured growth for CCN(CC)CCNc1ccc(C)c2sc3cc(C)ccc3c(=O)c12
[reply] 73

[ask] Give a short answer stating reported growth for CNC(=O)c1cc(Oc2ccc3nc(Nc4cc(Cl)cc(Cl)c4)ccc3c2)ccn1 .
[reply] 64.5

[ask] Give the reported value of growth for this record: Cc1cc(C(c2ccccc2)c2ccccc2)ccc1NS(=O)(=O)c1ccccc1
[reply] 89.8

* * *

# System: SW-620 colon
# experiment description: NCI-60 one-dose screen, 48 h
# experimental setup: 10 µM unless noted
# Procedure: Growth inhibition of the SW-620 human tumor cell line is measured as a screen for anti-cancer activity. Cells are grown in 96 well plates and exposed to the test compound for 48 hours. Compounds are tested at a single concentration, which is 10^-5 M for most compounds. The reported endpoint is percent growth (GI% or GIPRCNT), where numbers from 0 - 100% represent growth inhibition, and numbers from -100% - 0 represent cell death. For example, a value of 40 represents 60% growth inhibition. […]
The panel holds about 83,000 compounds, 20% with a hit somewhere; the sample as a whole holds those more often. Active and inactive are the calls of the source. The calls were made as follows: active = growth percent below 10; inactive = the rest.
# valid calls are active, inactive; nothing else

[ask] Could you kindly confirm the outcome this assay logged for COC(=O)CNC(=O)C(=O)c1c(O)c(O)c(C(C)C)c2cc(C)c(-c3c(C)cc4c(C(C)C)c(O)c(O)c(C(=O)C(=O)NCC(=O)OC)c4c3O)c(O)c12 ?
[reply] inactive

[ask] Per the assay record, what outcome was assigned to NC(=O)c1c(NC(=O)c2ccc(C(F)(F)F)cc2Cl)sc2c1CCC(=O)C2 ?
[reply] active

[ask] // outcome(item) with item = COc1cc2oc(-c3cccc(C(=O)Nc4ccc(C)cc4)c3)cc(=O)c2c(OC)c1OC
[reply] inactive

[ask] Status in this test for N=C(N)c1ccc(-c2ccc(-c3ccc(Cl)c(Cl)c3)o2)nc1 ?
[reply] active

[ask] Lab log entry: Cc1ccc(Nc2ccc(Nc3ccc(C)cc3S(=O)(=O)O)c3c2C(=O)c2ccccc2C3=O)c(S(=O)(=O)O)c1 — outcome as called in the assay?
[reply] inactive

[ask] # fetch the recorded call for O=C(NC(=S)Nc1ccc(-c2nc3ccccc3[nH]2)cc1)c1ccc2ccccc2c1 here
[reply] inactive

[ask] Hello, I am checking results. What call was entered for CC(C)N(CCOC(=O)Nc1ccccc1Cl)C(C)C ?
[reply] inactive

* * *

# Tested on: SR leukemia
# experiment description: NCI-60 one-dose screen, 48 h (100 = growth as untreated, 0 = no growth, -100 = all killed)
# experimental setup: 10 µM unless noted
Compounds without any hit were thinned out: in the full panel of roughly 83,000, 20% have a hit.
property measured: growth (%)
Entry rule: numbers only, all in %.

[ask] Using the record for Cc1cc2c(F)c(Oc3ncnc(Nc4ccc(N5C[C@@H](C)N[C@@H](C)C5)cc4)c3C#N)cc(F)c2[nH]1 , state its measured growth.
[reply] -26.4

[ask] Look up growth of Cc1cccc(-c2cc(O)c(C(=O)N3CCOCC3)s2)c1 and report it.
[reply] 25.5

[ask] State, in one line, measured growth of COc1cc2c(O)n(CCCn3ccnc3)c3c4cnc5cccc(c(=O)c3c2cc1OC)c54
[reply] 25

[ask] Report measured growth; entry is NC(N)=N/N=C/c1ccc(Br)cc1
[reply] 18.4

[ask] Annotate the compound CCCNCC(=O)Nc1ccc(C(=O)OC(C)(C)CC)cc1 with its measured growth.
[reply] 90.6

[ask] # return recorded growth for entry CN(CCC(=O)/C(=C\c1ccccc1)c1ccc(Cl)cc1)Cc1ccccc1
[reply] -1.56

[ask] Please indicate growth recorded for COc1cc2c(cc1OC)-c1ccc3cc4c(cc3c1N(CCN1CCCC1)C2)OCO4
[reply] 1.64

[ask] Provide one value: measured growth of CN1C[C@@H](c2ccc(Cl)cc2)[C@]2(NC(=S)N(c3ccc(F)c(Cl)c3)C2=O)[C@@]12C(=O)NC1C=CC(Cl)=C[C@H]12 (stereo not given in full)
[reply] 0.495

[ask] Complete the entry with growth for Cc1nc(Nc2cccc(NC(=O)Nc3ccc(Cl)cc3)c2)c2ccccc2n1
[reply] 22.1

[ask] Supply growth value. Item: O=C1CSC(c2ccccc2Cl)N1c1nnc(Cn2cnnc2)o1 (stereo not given)
[reply] -23.1

* * *

# System: MALME-3M melanoma
# experiment description: NCI-60 one-dose screen, 48 h
# experimental setup: 10 µM unless noted
The panel holds about 83,000 compounds, 20% with a hit somewhere; the sample as a whole holds those more often. Calls of active or inactive are those of the source. How the source made its calls: active means growth percent below 10; inactive means the rest.
Hello, when you answer, please use one of the following outcomes: active, inactive

[ask] What outcome does the record of this test show for CCCCN1CCN(c2ccc3nc(-c4ccc5nc(-c6cc(OC)c(OC)c(OC)c6)[nH]c5c4)[nH]c3c2)CC1 ?
[reply] inactive

[ask] In this assay, the call recorded for COC(=O)c1ccc2oc(NC(=O)c3ccc(N4CCOCC4)c([N+](=O)[O-])c3)nc2c1 was what?
[reply] inactive

[ask] Test call for this molecule, please: Cc1nc(Nc2ccc(N)cc2)c2ccccc2n1
[reply] inactive

[ask] What did the test return for NC(=O)c1c(NC(=O)c2ccc(C(F)(F)F)cc2Cl)sc2c1CCC(=O)C2 ?
[reply] active

[ask] Hello, I am checking results. What call was entered for O=C(Nc1cccc2[nH]c(C(F)(F)F)nc12)c1cc(Cl)ccc1Cl ?
[reply] inactive

[ask] What did this assay record as the result for CCNCCNc1cc(-c2cccc(C(F)(F)F)c2)c(C#N)c2nc3ccccc3n12 ?
[reply] active

[ask] GET /call?item= O=C(/C=C/C12c3ccccc3C(c3ccccc31)C1C(=O)NC(=O)C12)c1ccccc1 (stereo not given) returns the recorded outcome of this test.
[reply] inactive

[ask] Entry Cn1ccc(Cc2cnc(N)s2)n1 : call = ?
[reply] inactive

[ask] So what was the verdict on Cc1[nH]c(-c2nc3ccccc3[nH]2)c(C)c1C(=O)NNc1ccc(Cl)cc1 in this test?
[reply] inactive

[ask] Hi, sorry to bother you, what did the test record for C#C[C@]1(O)CC[C@H]2[C@@H]3CC=C4c5sc(N=C(N)N)nc5CC[C@]4(C)[C@H]3CC[C@@]21C ?
[reply] active

[ask] Which outcome was entered for the molecule COc1cc(/C=C/c2nc(Nc3ccc(S(=O)(=O)Nc4cc(C)on4)cc3)c3ccccc3n2)ccc1O in this test?
[reply] inactive

[ask] Record lookup: outcome of this test for O=C1/C(=C/c2ccccc2[N+](=O)[O-])COc2ccc(O)c(O)c21 ?
[reply] active

[ask] Outcome logged for CC(=[N-])N1CCC[C@@H](Nc2c3ccccc3nc3ccccc23)C1.[Cl][Pt].[NH-]CCC[NH-] in this assay:
[reply] inactive

[ask] Which outcome did this test record for the molecule O=C1CSC(c2ccccc2Cl)N1c1nnc(Cn2cnnc2)o1 (stereo not given) ?
[reply] inactive

[ask] In this assay, the call recorded for N#Cc1cnn2c(-c3ccc(Cl)cc3)nc(NCCc3ccccc3)nc12 was what?
[reply] inactive

* * *

# Test system: NCI-H522 lung
# experiment description: NCI-60 one-dose screen, 48 h (100 = growth as untreated, 0 = no growth, -100 = all killed)
# experimental setup: 10 µM unless noted
Compounds without any hit were thinned out: in the full panel of roughly 83,000, 20% have a hit.
property measured: growth (%)
Numbers only; they are read as %.

[ask] Please indicate growth recorded for CC(=O)NCC(=O)Nc1ccc(-c2nnc3ccccn23)nc1.CC(=O)NCC(=O)Nc1ccc(-c2nnc3ccccn23)nc1.[Pt+2]
[reply] 83.6

[ask] Could you please provide reported growth for CCn1c(Sc2nnc(Nc3ccccc3)s2)nc2c1c(=O)n(C)c(=O)n2C ? Thanks!
[reply] 114

[ask] Query growth for CC1(C)C(=O)/C(=C\c2cccnc2)C[C@]2(C)[C@H]3CC=C4[C@@H]5C[C@@](C)(C(=O)O)CC[C@]5(C)CC[C@@]4(C)[C@]3(C)CC[C@@H]12
[reply] 87.1

[ask] Provide growth value for the following molecule: COc1cccc(CCC2CCCN(c3cc(C)nc(N)n3)C2)c1 (stereo not given)
[reply] 2.3

[ask] Please give measured growth of the following entry: COc1cccc(-c2nc3sccn3c2-c2ccnc(NCCNS(=O)(=O)c3c(Cl)cccc3Cl)c2)c1
[reply] 60.5
